test_summary: Cytotoxicity against human C3PV cells assessed as reduction in cell viability incubated for 24 hrs by MTT assay
Format: toxicity, cell-based
conditions: human, C3PV cells
Sorting guide: entries reporting IC50 at 24 h beneath 2 µM go in the 1 (yes) pile, the rest go in the 0 (no) pile.

- molecule: "COc1cc2ccc(=O)oc2cc1O [SCOPOLETIN]"
  label_class: "1 (yes)"
- molecule: "O=c1ccc2cc(O)ccc2o1 [6-HYDROXYCOUMARIN]"
  label_class: "0 (no)"
- molecule: "C[C@H]1[C@H](OC(=O)CCC(=O)Oc2cc(=O)oc3ccccc23)O[C@@H]2C[C@]3(C)CC[C@H]4[C@H](C)CC[C@@H]1[C@@]24OO3"
  label_class: "0 (no)"
- molecule: "C[C@H]1[C@H](OC(=O)CCC(=O)Nc2ccc3c(C(F)(F)F)cc(=O)oc3c2)O[C@@H]2C[C@]3(C)CC[C@H]4[C@H](C)CC[C@@H]1[C@@]24OO3"
  label_class: "1 (yes)"
- molecule: "O=c1oc2ccccc2cc1O [3-HYDROXYCOUMARIN]"
  label_class: "0 (no)"
- molecule: "O=c1ccc2cc(O)c(O)cc2o1 [ESCULETIN]"
  label_class: "0 (no)"
- molecule: "COc1cc2ccc(=O)oc2cc1OC(=O)CCC(=O)O[C@@H]1O[C@@H]2C[C@]3(C)CC[C@H]4[C@H](C)CC[C@@H]([C@H]1C)[C@@]24OO3"
  label_class: "0 (no)"
- molecule: "Cc1cc(=O)oc2cc(OC(=O)CCC(=O)O[C@@H]3O[C@@H]4C[C@]5(C)CC[C@H]6[C@H](C)CC[C@@H]([C@H]3C)[C@@]46OO5)ccc12"
  label_class: "1 (yes)"
- molecule: "O=c1cc(C(F)(F)F)c2ccc(O)cc2o1"
  label_class: "0 (no)"
- molecule: "C[C@H]1[C@H](OC(=O)CCC(=O)Oc2ccc3ccc(=O)oc3c2)O[C@@H]2C[C@]3(C)CC[C@H]4[C@H](C)CC[C@@H]1[C@@]24OO3"
  label_class: "0 (no)"
